Tested on: Echinochloa crus-galli (ECHCG)
Assay: Example B post-emergence herbicidal test, ECHCG
Format: in vivo
Conditions: Echinochloa crus-galli, 312 h, rate 250 g/ha, evaluated after 13 days, scale 0-100, read-out: Post-emergence activity ECHCG (100=total damage to plant; 0=no damage to plant)
ATTRIBUTE_MEASURED: pest or weed control at 250 g/ha (%)

>>> print(df.to_string())
                                    compound  measured
 0  Cc1cc(C)c(C2C(=O)CC(CC3CCN(C(=O)C(C)C)CC3)C2=O)c(C)c1 (stereo not shown)        80
 1  Cc1cc(C)c(C2C(=O)CC(CC3CCN(C(=O)C(C)(C)C)C3)C2=O)c(C)c1 (stereo not shown)        60
 2  Cc1cc(C)c(C2C(=O)CC(CC3CCN(C(=O)c4ccc(Cl)cc4)CC3)C2=O)c(C)c1 (stereo not shown)        90
 3  COC(=O)N1CCC(CC2CC(=O)C(c3c(C)cc(C)cc3C)C2=O)CC1 (stereo not shown)        90
 4  Cc1cc(C)c(C2=C(OC(=O)OC(C)(C)C)CC(CC3CCN(C(=O)OC(C)(C)C)CC3)C2=O)c(C)c1 (stereo not shown)        80
 5  Cc1cc(C)c(C2C(=O)CC(CC3CCN(C(=O)C(Cl)(Cl)Cl)CC3)C2=O)c(C)c1 (stereo not shown)        30
 6  Cc1cc(C)c(C2C(=O)CC(CC3CCN(C(=O)C(C)Cl)CC3)C2=O)c(C)c1 (stereo not shown)        70
 7  Cc1cc(C)c(C2=C(OC(=O)C(C)(C)C)CC(CC3CCCOC3)C2=O)c(C)c1 (stereo not shown)        90
 8  CCCCC(=O)N1CCC(CC2CC(=O)C(c3c(C)cc(C)cc3C)C2=O)CC1 (stereo not shown)        80
 9  Cc1cc(C)c(C2C(=O)CC(CC3CCN(C(=O)c4c(C)noc4C)C3)C2=O)c(C)c1 (stereo not shown)        60
10  CCc1cc(C)cc(C)c1C1C(=O)CC(CCC2CCOCC2)C1=O (stereo not shown)       100
11  Cc1cc(C)c(C2C(=O)CC(CC3CCN(C(=O)/C=C/c4ccccc4)CC3)C2=O)c(C)c1 (stereo not shown)        50
12  Cc1cc(C)c(C2C(=O)CC(C(O)C3CCSCC3)C2=O)c(C)c1 (stereo not shown)        10

###

System: Alopecurus myosuroides (ALOMY)
Assay: Example B post-emergence herbicidal test, ALOMY
Type: in vivo
Conditions: Alopecurus myosuroides, 312 h, rate 250 g/ha, evaluated after 13 days, scale 0-100, read-out: Post-emergence activity ALOMY (100=total damage to plant; 0=no damage to plant)
ATTRIBUTE_MEASURED: pest or weed control at 250 g/ha (%)

>>> print(df.to_string())
                                   compound  measured
0  Cc1cc(C)c(C2C(=O)CC(C(O)C3CCOC(C)(C)C3)C2=O)c(C)c1 (centres unmarked)       100
1  Cc1cc(Br)cc(C)c1C1C(=O)CC(CC2CCOCC2)C1=O (centres unmarked)        90
2  Cc1cc(C)c(C2C(=O)CC(CC3CCN(C(=O)c4ccc(Cl)cc4Cl)CC3)C2=O)c(C)c1 (centres unmarked)        30
3  Cc1cc(C)c(C2C(=O)CC(CC3CCN(C(=O)C(C)Cl)CC3)C2=O)c(C)c1 (centres unmarked)        70
4  Cc1cc(-c2ccc(C(F)(F)F)cc2)cc(C)c1C1C(=O)CC(CC2CCOC2)C1=O (centres unmarked)        30
5  Cc1cc(C)c(C2C(=O)CC(CC3OCCO3)C2=O)c(C)c1 (centres unmarked)        60
6  Cc1cc(C)c(C2C(=O)CC(CC3CCN(C(=O)C(F)(F)F)C3)C2=O)c(C)c1 (centres unmarked)        60
7  Cc1cc(C)c(C2C(=O)CC(CC3C[C@@H]4O[C@H]3[C@@H]3C(=O)N(C)C(=O)[C@@H]34)C2=O)c(C)c1 (some centres unmarked)        40

###

The following compounds are listed with their measured pest or weed control at 250 g/ha values.
Tested on: Echinochloa crus-galli (ECHCG)
Assay: Example B post-emergence herbicidal test, ECHCG
Format: in vivo
Details: Echinochloa crus-galli, 312 h, rate 250 g/ha, evaluated after 13 days, scale 0-100, read-out: Post-emergence activity ECHCG (100=total damage to plant; 0=no damage to plant)
ATTRIBUTE_MEASURED: pest or weed control at 250 g/ha (%)

In [3]: df
Out[3]:
                                    compound  measurement_units  measured
 0  Cc1cc(C)c(C2C(=O)CC(CC3CCN(C(=O)c4ccco4)CC3)C2=O)c(C)c1 (stereo not drawn) [Compound T90]                  %        80
 1  Cc1cc(C)c(C2=C(OC(=O)C(C)(C)C)CC(CC3COCCO3)C2=O)c(C)c1 (stereo not drawn) [Compound P49]                  %       100
 2  Cc1cc(C)c(C2C(=O)C(C)C(CC3CCOC3)C2=O)c(C)c1 (stereo not drawn) [Compound T29]                  %        80
 3  Cc1cc(C)c(C2=C(OC(=O)N3CCCCC3)CC(CC3CCOC3)C2=O)c(C)c1 (stereo not drawn) [Compound P29]                  %        30
 4  CC(=O)N1CCC(CC2CC(=O)C(c3c(C)cc(C)cc3C)C2=O)C1 (stereo not drawn) [Compound T35]                  %        70
 5  COc1ccc(C(=O)OC2=C(c3c(C)cc(C)cc3C)C(=O)C(CC3CCOC3)C2)cc1 (stereo not drawn) [Compound P18]                  %        90
 6  Cc1cc(C)c(C2C(=O)CC(CC3CCN(C(=O)c4cccs4)CC3)C2=O)c(C)c1 (stereo not drawn) [Compound T110]                  %        40
 7  CCS(=O)(=O)OC1=C(c2c(C)cc(C)cc2C)C(=O)C(CC2CCOC2)C1 (stereo not drawn) [Compound P27]                  %        90
 8  Cc1cc(C)c(C2C(=O)CC(CC3CCN(C(=O)C(F)(F)C(F)F)CC3)C2=O)c(C)c1 (stereo not drawn) [Compound T161]                  %        90
 9  CCc1cc(C)cc(CC)c1C1C(=O)C(CC2CCOCC2)C(CC2CCOCC2)C1=O (stereo not drawn) [Compound T12]                  %       100
10  Cc1cc(-c2ccc(F)cc2)cc(C)c1C1C(=O)C/C(=C\C2CCOCC2)C1=O (stereo not drawn) [Compound T61]                  %       100
11  Cc1cc(C)c(C2=C(OC(=O)C(C)(C)C)CC(CC3CCOC3)C2=O)c(C)c1 (stereo not drawn) [Compound P7]                  %        90
12  Cc1cc(C)c(C2C(=O)CC(CC3CCN(C(=O)C(C)C)C3)C2=O)c(C)c1 (stereo not drawn) [Compound T142]                  %        60
13  Cc1cc(C)c(C2C(=O)CC(CC3CCCCN3S(C)(=O)=O)C2=O)c(C)c1 (stereo not drawn) [Compound T51]                  %        70
14  CON1CCC(CC2CC(OC(C)=O)=C(c3c(C)cc(C)cc3C)C2=O)CC1 (stereo not drawn) [Compound P50]                  %       100
15  Cc1cc(C)c(C2=C(OC(=O)c3ccccc3)CC(CC3CCOCC3)C2=O)c(C)c1 (stereo not drawn) [Compound P44]                  %       100
16  Cc1cc(C)c(C2C(=O)CC(CC3CCOC3)C2=O)c(C)c1 (stereo not drawn) [Compound T5]                  %       100
17  Cc1cc(C)c(C2=C(OC(=O)OC(C)C)CC(CC3CCOC3)C2=O)c(C)c1 (stereo not drawn) [Compound P31]                  %       100
18  Cc1cc(C)c(C2C(=O)CC(CC3CCN(C(=O)c4ccc(Cl)cc4Cl)CC3)C2=O)c(C)c1 (stereo not drawn) [Compound T71]                  %        70
19  Cc1cc(C)c(C2C(=O)CC(CC3CCN(C(=O)C(F)(F)F)C3)C2=O)c(C)c1 (stereo not drawn) [Compound T162]                  %        70
20  Cc1cc(C)c(C2=C(OC(=O)C(C)(C)C)CC(CC3CCOCC3)C2=O)c(C)c1 (stereo not drawn) [Compound P5]                  %       100
21  Cc1cc(C)c(C2=C(OC(=O)OCC(C)C)CC(CC3CCOC3)C2=O)c(C)c1 (stereo not drawn) [Compound P23]                  %        90
22  Cc1cc(C)c(C2C(=O)CC(CC3CCOC(C)(C)C3)C2=O)c(C)c1 (stereo not drawn) [Compound T39]                  %       100
23  Cc1cc(C)c(C2C(=O)CC(CC3COCCO3)C2=O)c(C)c1 (stereo not drawn) [Compound T40]                  %       100
24  CCc1cc(C)cc(C)c1C1C(=O)C/C(=C\C2CCOC2)C1=O (stereo not drawn) [Compound T59]                  %        90
25  Cc1cc(C)c(C2C(=O)CC(CC3C[C@@H]4O[C@H]3[C@@H]3C(=O)N(C)C(=O)[C@@H]34)C2=O)c(C)c1 (stereo partly drawn) [Compound T128]                  %        50
26  Cc1cc(C)c(C2C(=O)CC(CC3CCN(C(=O)c4ccc(F)cc4)CC3)C2=O)c(C)c1 (stereo not drawn) [Compound T75]                  %        90
27  Cc1cc(C)c(C2=C(OC(=O)C3CC3)CC(CC3CCOC3)C2=O)c(C)c1 (stereo not drawn) [Compound P14]                  %        90
28  C=CCOC(=O)OC1=C(c2c(C)cc(C)cc2C)C(=O)C(CC2CCOC2)C1 (stereo not drawn) [Compound P25]                  %       100
29  CCCOC(=O)OC1=C(c2c(C)cc(C)cc2C)C(=O)C(CC2CCOC2)C1 (stereo not drawn) [Compound P20]                  %       100
30  Cc1cc(C)c(C2C(=O)CC(C)(C(O)C3CCOCC3)C2=O)c(C)c1 (stereo not drawn) [Compound T27]                  %        80
31  Cc1cc(C)c(C2C(=O)CC(CC3CCN(C(=O)c4ccc(C(F)(F)F)cc4)CC3)C2=O)c(C)c1 (stereo not drawn) [Compound T99]                  %        90
32  Cc1cc(C)c(C2=C(OC(=O)c3cccs3)CC(CC3CCN(C(=O)c4cccs4)C3)C2=O)c(C)c1 (stereo not drawn) [Compound P61]                  %        90
